# growth inhibition values compiled below
Test system: DIPGX7 (H3.3 K27M diffuse intrinsic pontine glioma line)
Experiment: growth inhibition (% activity, log2 RLU normalised to DMSO / staurosporine); higher = more growth inhibition
Conditions: 33 µM
RECORDED_ENDPOINT: growth inhibition

- MOLECULE: "N=C(N)NCCC[C@H](N)C(=O)O"
  RECORDED_ENDPOINT: "growth inhibition"
  MEASUREMENT: "0.302%"
- MOLECULE: "COC(=O)Nc1nc2cc([S+]([O-])c3ccccc3)ccc2[nH]1 (stereo not given)"
  RECORDED_ENDPOINT: "growth inhibition"
  MEASUREMENT: "4.77%"
- MOLECULE: "Cc1cc(NS(=O)(=O)c2ccc(N)cc2)no1"
  RECORDED_ENDPOINT: "growth inhibition"
  MEASUREMENT: "-1.62%"
- MOLECULE: "CN(C)c1ccc(C(=C2C=CC(=[N+](C)C)C=C2)c2ccc(N(C)C)cc2)cc1"
  RECORDED_ENDPOINT: "growth inhibition"
  MEASUREMENT: "42.3%"
- MOLECULE: "CC[C@H](C)[C@H](N)C1=N[C@H](C(=O)N[C@@H](CC(C)C)C(=O)N[C@H](CCC(=O)O)C(=O)N[C@H](C(=O)N[C@H]2CCCCNC(=O)[C@H](CC(N)=O)NC(=O)[C@@H](CC(=O)O)NC(=O)[C@H](Cc3cnc[nH]3)NC(=O)[C@@H](Cc3ccccc3)NC(=O)[C@H]([C@@H](C)CC)NC(=O)[C@@H](CCCN)NC2=O)[C@@H](C)CC)CS1"
  RECORDED_ENDPOINT: "growth inhibition"
  MEASUREMENT: "2.09%"
- MOLECULE: "NC[C@@H]1O[C@H](O[C@H]2[C@@H](O)[C@H](O[C@@H]3[C@@H](O)[C@H](N)C[C@H](N)[C@H]3O[C@H]3O[C@H](CO)[C@@H](O)[C@H](O)[C@H]3N)O[C@@H]2CO)[C@H](N)[C@@H](O)[C@@H]1O"
  RECORDED_ENDPOINT: "growth inhibition"
  MEASUREMENT: "0.972%"
- MOLECULE: "COC(=O)/C=C/C(=O)OC"
  RECORDED_ENDPOINT: "growth inhibition"
  MEASUREMENT: "-0.432%"
- MOLECULE: "CC[C@@H](CO)NCCN[C@@H](CC)CO"
  RECORDED_ENDPOINT: "growth inhibition"
  MEASUREMENT: "-2.38%"
- MOLECULE: "Nc1nc2ccc(OC(F)(F)F)cc2s1"
  RECORDED_ENDPOINT: "growth inhibition"
  MEASUREMENT: "3.41%"
- MOLECULE: "CCOC(=O)CC(=O)N1CCSC1COc1ccccc1OC (stereo not given)"
  RECORDED_ENDPOINT: "growth inhibition"
  MEASUREMENT: "3.11%"

---

Test system: HGGX6 (H3.3 G34R paediatric high-grade glioma line)
Experiment: growth inhibition (% activity, log2 RLU normalised to DMSO / staurosporine); higher = more growth inhibition
Conditions: 33 µM
RECORDED_ENDPOINT: growth inhibition (%)

- COMPOUND: "CN(Cc1cc(Br)cc(Br)c1N)C1CCCCC1"
  RECORDED_ENDPOINT: "growth inhibition"
  UNIT_LABEL: "%"
  MEASUREMENT: 1.81
- COMPOUND: "NCCc1ccc(O)c(O)c1"
  RECORDED_ENDPOINT: "growth inhibition"
  UNIT_LABEL: "%"
  MEASUREMENT: -1.23
- COMPOUND: "O=C(O)CCc1nc(-c2ccccc2)c(-c2ccccc2)o1"
  RECORDED_ENDPOINT: "growth inhibition"
  UNIT_LABEL: "%"
  MEASUREMENT: 1.25
- COMPOUND: "Cc1ccnc(NS(=O)(=O)c2ccc(N)cc2)n1"
  RECORDED_ENDPOINT: "growth inhibition"
  UNIT_LABEL: "%"
  MEASUREMENT: -0.277
- COMPOUND: "CN(C)/N=N/c1[nH]cnc1C(N)=O"
  RECORDED_ENDPOINT: "growth inhibition"
  UNIT_LABEL: "%"
  MEASUREMENT: 7.4
- COMPOUND: "CS(=O)(=O)c1ccc([C@@H](O)[C@@H](CO)NC(=O)C(Cl)Cl)cc1"
  RECORDED_ENDPOINT: "growth inhibition"
  UNIT_LABEL: "%"
  MEASUREMENT: 5.24
- COMPOUND: "NCC(=O)CCC(=O)O"
  RECORDED_ENDPOINT: "growth inhibition"
  UNIT_LABEL: "%"
  MEASUREMENT: 1.54
- COMPOUND: "O=C(C[S+]([O-])Cc1ccco1)NC/C=C\\COc1cc(CN2CCCCC2)ccn1 (centres undefined)"
  RECORDED_ENDPOINT: "growth inhibition"
  UNIT_LABEL: "%"
  MEASUREMENT: 0.0479
- COMPOUND: "CC(=O)[C@H]1CC[C@H]2[C@@H]3C=CC4=CC(=O)CC[C@@]4(C)[C@@H]3CC[C@]12C"
  RECORDED_ENDPOINT: "growth inhibition"
  UNIT_LABEL: "%"
  MEASUREMENT: -2.88
- COMPOUND: "CS(=O)(=O)OCCCCOS(C)(=O)=O"
  RECORDED_ENDPOINT: "growth inhibition"
  UNIT_LABEL: "%"
  MEASUREMENT: 2.25
- COMPOUND: "O=c1c(-c2ccc(O)cc2)coc2cc(O)cc(O)c12"
  RECORDED_ENDPOINT: "growth inhibition"
  UNIT_LABEL: "%"
  MEASUREMENT: 2.54
- COMPOUND: "Clc1ccc(CSC(Cn2ccnc2)c2ccc(Cl)cc2Cl)cc1 (centres undefined)"
  RECORDED_ENDPOINT: "growth inhibition"
  UNIT_LABEL: "%"
  MEASUREMENT: 8.31
- COMPOUND: "Cc1cc2c(s1)Nc1ccccc1N=C2N1CCN(C)CC1"
  RECORDED_ENDPOINT: "growth inhibition"
  UNIT_LABEL: "%"
  MEASUREMENT: 0.504
- COMPOUND: "O=C(O)c1cccnc1Nc1cccc(C(F)(F)F)c1"
  RECORDED_ENDPOINT: "growth inhibition"
  UNIT_LABEL: "%"
  MEASUREMENT: 2.52
- COMPOUND: "C[C@@H]1CC(=O)NN=C1c1ccc(NN=C(C#N)C#N)cc1"
  RECORDED_ENDPOINT: "growth inhibition"
  UNIT_LABEL: "%"
  MEASUREMENT: 2.45
- COMPOUND: "O[C@@H]1CO[C@H]2[C@@H]1OC[C@@H]2O"
  RECORDED_ENDPOINT: "growth inhibition"
  UNIT_LABEL: "%"
  MEASUREMENT: 0.785
- COMPOUND: "CCOc1ccc(NC(C)=O)cc1"
  RECORDED_ENDPOINT: "growth inhibition"
  UNIT_LABEL: "%"
  MEASUREMENT: -0.142
- COMPOUND: "O=C(O)CCCC[C@@H]1SC[C@@H]2NC(=O)N[C@@H]21"
  RECORDED_ENDPOINT: "growth inhibition"
  UNIT_LABEL: "%"
  MEASUREMENT: 2.52
- COMPOUND: "N=C(N)NCCN1CCCCCCC1"
  RECORDED_ENDPOINT: "growth inhibition"
  UNIT_LABEL: "%"
  MEASUREMENT: 1.1
- COMPOUND: "C1N2CN3CN1CN(C2)C3"
  RECORDED_ENDPOINT: "growth inhibition"
  UNIT_LABEL: "%"
  MEASUREMENT: 2.47
- COMPOUND: "O=C([O-])c1ccccc1O.[Na+]"
  RECORDED_ENDPOINT: "growth inhibition"
  UNIT_LABEL: "%"
  MEASUREMENT: -1.22
- COMPOUND: "CNC(=O)c1cc(Oc2ccc(NC(=O)Nc3ccc(Cl)c(C(F)(F)F)c3)c(F)c2)ccn1"
  RECORDED_ENDPOINT: "growth inhibition"
  UNIT_LABEL: "%"
  MEASUREMENT: 5.99
- COMPOUND: "O=C(CCNNC(=O)c1ccncc1)NCc1ccccc1"
  RECORDED_ENDPOINT: "growth inhibition"
  UNIT_LABEL: "%"
  MEASUREMENT: -1.96
- COMPOUND: "CN1C2CCCC1CC(NC(=O)c1nn(C)c3ccccc13)C2 (centres undefined)"
  RECORDED_ENDPOINT: "growth inhibition"
  UNIT_LABEL: "%"
  MEASUREMENT: 1.21
- COMPOUND: "CCCCN1CCCCC1C(=O)Nc1c(C)cccc1C (centres undefined)"
  RECORDED_ENDPOINT: "growth inhibition"
  UNIT_LABEL: "%"
  MEASUREMENT: 0.943
- COMPOUND: "Cc1ccc(N(CC2=NCCN2)c2cccc(O)c2)cc1"
  RECORDED_ENDPOINT: "growth inhibition"
  UNIT_LABEL: "%"
  MEASUREMENT: -3.2
- COMPOUND: "CO[C@H]1/C=C/O[C@@]2(C)Oc3c(C)c(O)c4c(O)c(c(/C=N/N5CCN(C6CCCC6)CC5)c(O)c4c3C2=O)NC(=O)/C(C)=C\\C=C\\[C@H](C)[C@H](O)[C@@H](C)[C@@H](O)[C@@H](C)[C@H](OC(C)=O)[C@@H]1C"
  RECORDED_ENDPOINT: "growth inhibition"
  UNIT_LABEL: "%"
  MEASUREMENT: 2.94
- COMPOUND: "CC(=O)O[C@]1(C(C)=O)CC[C@H]2[C@@H]3C=C(C)C4=CC(=O)CC[C@]4(C)[C@H]3CC[C@@]21C"
  RECORDED_ENDPOINT: "growth inhibition"
  UNIT_LABEL: "%"
  MEASUREMENT: -3.03
- COMPOUND: "C#C[C@]1(O)CC[C@H]2[C@@H]3CCC4=CC(=O)CC[C@@H]4[C@H]3CC[C@@]21C"
  RECORDED_ENDPOINT: "growth inhibition"
  UNIT_LABEL: "%"
  MEASUREMENT: 7.23
- COMPOUND: "C=CCNC(N)=S"
  RECORDED_ENDPOINT: "growth inhibition"
  UNIT_LABEL: "%"
  MEASUREMENT: 1.43
- COMPOUND: "CCOC(=O)C1=C(C)NC(C)=C(C(=O)OC)C1c1cccc(Cl)c1Cl (centres undefined)"
  RECORDED_ENDPOINT: "growth inhibition"
  UNIT_LABEL: "%"
  MEASUREMENT: -1.45
- COMPOUND: "COC1=C(OC)C(=O)C(CCCCCCCCCCO)=C(C)C1=O"
  RECORDED_ENDPOINT: "growth inhibition"
  UNIT_LABEL: "%"
  MEASUREMENT: 3.84
- COMPOUND: "C[C@]12C=CC(=O)N[C@@H]1CC[C@@H]1[C@@H]2CC[C@]2(C)[C@@H](C(=O)Nc3cc(C(F)(F)F)ccc3C(F)(F)F)CC[C@@H]12"
  RECORDED_ENDPOINT: "growth inhibition"
  UNIT_LABEL: "%"
  MEASUREMENT: 1.03
- COMPOUND: "O=C(NC[C@H]1CN(c2ccc(N3CCOCC3=O)cc2)C(=O)O1)c1ccc(Cl)s1"
  RECORDED_ENDPOINT: "growth inhibition"
  UNIT_LABEL: "%"
  MEASUREMENT: 0.545
- COMPOUND: "CN(C)c1cc(NC(=O)CNC(C)(C)C)c(O)c2c1CC1CC3C(N(C)C)C(=O)C(C(N)=O)=C(O)C3(O)C(=O)C1=C2O (centres undefined)"
  RECORDED_ENDPOINT: "growth inhibition"
  UNIT_LABEL: "%"
  MEASUREMENT: -2.33
- COMPOUND: "NC(Cc1cc(I)c(Oc2cc(I)c(O)c(I)c2)c(I)c1)C(=O)O (centres undefined)"
  RECORDED_ENDPOINT: "growth inhibition"
  UNIT_LABEL: "%"
  MEASUREMENT: -2.56
- COMPOUND: "O=c1n(CCCN2CCN(c3cccc(Cl)c3)CC2)nc2ccccn12"
  RECORDED_ENDPOINT: "growth inhibition"
  UNIT_LABEL: "%"
  MEASUREMENT: 3.57
- COMPOUND: "C[N+]1(C)[C@@H]2C[C@@H](OC(=O)C(O)(c3cccs3)c3cccs3)C[C@H]1[C@@H]1O[C@@H]12"
  RECORDED_ENDPOINT: "growth inhibition"
  UNIT_LABEL: "%"
  MEASUREMENT: -0.274
- COMPOUND: "CC(C)(O/N=C(\\C(=O)N[C@@H]1C(=O)N2C(C(=O)[O-])=C(C[n+]3ccccc3)CS[C@H]12)c1csc(N)n1)C(=O)O"
  RECORDED_ENDPOINT: "growth inhibition"
  UNIT_LABEL: "%"
  MEASUREMENT: -0.0518
- COMPOUND: "Cn1c(=O)c2[nH]cnc2n(C)c1=O"
  RECORDED_ENDPOINT: "growth inhibition"
  UNIT_LABEL: "%"
  MEASUREMENT: 0.444
- COMPOUND: "CC(C(=O)O)c1ccc2c(c1)Cc1cccnc1O2 (centres undefined)"
  RECORDED_ENDPOINT: "growth inhibition"
  UNIT_LABEL: "%"
  MEASUREMENT: 2.19
- COMPOUND: "COc1ccc(-c2nc3ccc(C4=NNC(=O)CC4C)cc3[nH]2)cc1 (centres undefined)"
  RECORDED_ENDPOINT: "growth inhibition"
  UNIT_LABEL: "%"
  MEASUREMENT: 2.72
- COMPOUND: "Nc1nc(N)nc(-c2cc(Cl)ccc2Cl)n1"
  RECORDED_ENDPOINT: "growth inhibition"
  UNIT_LABEL: "%"
  MEASUREMENT: 0.13
- COMPOUND: "CS(=O)(=O)c1ccc([C@@H](O)[C@@H](CF)NC(=O)C(Cl)Cl)cc1"
  RECORDED_ENDPOINT: "growth inhibition"
  UNIT_LABEL: "%"
  MEASUREMENT: 5.33
